Molecular target: T1, lecithin:cholesterol acyltransferase (LCAT), purified from human plasma (human, UniProt P04180 25-440)
T1 sequence (looked up): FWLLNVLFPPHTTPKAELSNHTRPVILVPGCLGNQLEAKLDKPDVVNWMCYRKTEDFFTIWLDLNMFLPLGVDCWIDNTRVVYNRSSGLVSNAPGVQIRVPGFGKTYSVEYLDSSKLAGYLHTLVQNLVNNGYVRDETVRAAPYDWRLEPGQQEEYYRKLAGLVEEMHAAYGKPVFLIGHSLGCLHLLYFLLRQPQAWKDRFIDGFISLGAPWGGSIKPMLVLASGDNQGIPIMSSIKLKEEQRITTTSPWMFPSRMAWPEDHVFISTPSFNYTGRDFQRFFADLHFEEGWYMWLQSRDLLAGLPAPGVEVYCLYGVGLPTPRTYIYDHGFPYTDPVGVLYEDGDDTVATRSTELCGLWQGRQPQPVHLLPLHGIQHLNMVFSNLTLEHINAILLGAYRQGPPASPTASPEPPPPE
Test: cell-based or functional assay
Non-standard residues stand in square brackets, D forms with d. No end group written: not given here. Aib = CC(C)(N)C(=O)O
property_measured: ACTIVITY (%) LCAT
Provide the reading as a plain figure in %.

Example binders with recorded ACTIVITY (%) LCAT:
binder: PVLDEFRWKLNE[Aib]LEALKQKLK [peptide 61]
measurement_unit: %
reported_measurement: 16

binder: Ac-EWLEAFYKKVLEKLKELF-NH2 [peptide 239]
measurement_unit: %
reported_measurement: 11

binder: PWLDEFREKLNE[Aib]LEALKQKLK [peptide 64]
measurement_unit: %
reported_measurement: 15

Switching to the query record.
The recorded ACTIVITY (%) LCAT for entry Ac-PVLDLFRELGEELKQKLK-NH2 [peptide 227] equals 0

These measurements were taken from patent US20050080013A1.
